Entry source: patent US20200261421A1

// values below are reported pIC50
assay_target: wild-type HIV-1 protease (Human immunodeficiency virus type 1 group M subtype B, UniProt P04585)
The value called pIC50 is obtained by taking minus log10 of the concentration in mol/L.

Record excerpt, results attached:
* COc1ccc(CN2C(=N)NC(c3ccccc3)(c3ccccc3)C2=O)cc1C(=O)N(C)Cc1ccc(F)cc1 [Example 78] | 7.27
* CN(Cc1ccnc(Cl)c1)C(=O)c1cccc(CN2C(=N)NC(c3ccc(F)cc3)(c3ccc(F)cc3)C2=O)c1 [Example 38] | 7.62
* CC(C)CC1(c2ccccc2)NC(=N)N(Cc2ccc(C(F)(F)F)c(C(=O)NCc3cnccn3)c2)C1=O (stereo not drawn) [Example 6] | 7.33
* CC(C)CC1(c2ccccc2)NC(=N)N(Cc2ccc(C(F)(F)F)c(C(=O)NCc3ncccn3)c2)C1=O (stereo not drawn) [Example 11] | 7.04
* CC(C)CC1(c2ccccc2)NC(=N)N(Cc2ccc(Cl)c(C(=O)NCc3ccc(F)cc3)c2)C1=O (stereo not drawn) [Example 72] | 8.02
* CN(Cc1ccccc1S(C)(=O)=O)C(=O)c1ccnc(CN2C(=N)NC(c3ccccc3)(c3ccccc3)C2=O)c1 [Example 92] | 7.28
* CC(C)CCC1(c2ccc(F)cc2)NC(=N)N(Cc2cccc(C(=O)N(C)Cc3ccc(Cl)cc3)c2)C1=O (stereo not drawn) [Example 22] | 7.89
* [2H]C([2H])([2H])N(C(=O)c1cccc(CN2C(=N)NC(c3ccc(F)cc3)(c3ccc(F)cc3)C2=O)c1)[C@H](C)c1ccc(F)cc1 [Example 50] | 7.35

Could you now consider this next compound?
So for CC(C)CCC1(c2ccccc2)NC(=N)N(Cc2ccc(C(F)(F)F)c(C(=O)NCc3ncccn3)c2)C1=O (stereo not drawn) [Example 8] , the logged pIC50 turned out to be 7.26

----------
assay_target: wild-type HIV-1 protease (Human immunodeficiency virus type 1 group M subtype B)
Construct: Escherichia coli expressed wild-type HIV-1 protease protein; made in house; host or cells: Escherichia coli
test_name: Assay for Inhibition of Microbial Expressed HIV Protease
Assay type: biochemical
assay_conditions: Escherichia coli expressed wild-type HIV-1 protease, peptide substrate cleavage; mean of at least two independent experiments
measurement_name: pIC50
Entry type: numeric. Quantity: pIC50, the -log10 of concentration in molar units.

Some entries whose results are on file:
* N=C1NC(c2ccccc2)(c2ccccc2)C(=O)N1Cc1ccc(C(F)(F)F)c(C(=O)NCc2cccc(OC(F)F)c2)c1 | 7.16
* CC(C)CC1(c2ccccc2)NC(=N)N(Cc2cncc(C(=O)N(C)Cc3ccc(C#N)cc3)c2)C1=O (stereo not shown) | 7.03
* N=C1NC(c2ccccc2)(c2ccccc2)C(=O)N1Cc1ccc(C(F)(F)F)c(C(=O)NCc2ccc(OC(F)F)cc2)c1 | 7.03

Fill in: wild-type HIV-1 protease (Human immunodeficiency virus type 1 group M subtype B) pIC50 for CC(C)CC1(c2ccccc2)NC(=N)N(Cc2cc(C(=O)N(C)Cc3ccc(C#N)cc3)ccn2)C1=O (stereo not shown) = 7.81
